# SUBJECT OF TEST: wild-type HIV RT (Human immunodeficiency virus type 1 group M subtype B)
# Construct: IC50 is indicated in microM for wild-type HIV RT
# ASSAY PROTOCOL: IC50 for wild-type HIV RT
# Assay type: biochemical
# ASSAY SETUP: Table 1, numeric value
MEASURE NAME: IC50 (µM)
Report as a plain number; the unit µM is understood.

Query: So what's the measured IC50 for this one? Cc1ccc(NC(=O)C(C)Sc2nnc(C)n2-c2ccc(C)cc2)cc1 (stereo not shown)
Response: 36.3

---

# SUBJECT OF TEST: wild-type HIV RT (Human immunodeficiency virus type 1 group M subtype B, UniProt P03366)
# Construct: IC50 is indicated in microM for wild-type HIV RT
# ASSAY PROTOCOL: IC50 for wild-type HIV RT
# Format: biochemical
# ASSAY SETUP: Table 1
pIC50: −log10 of the molar value.
MEASURE NAME: pIC50

* Cc1ccc(NC(=O)CSc2nnc(-c3ccccc3C)n2-c2ccccc2)c(Br)c1 [compound 52] | 4.00 to 5.00

Query: Which pIC50 value is on record for Cc1ccc(NC(=O)CSc2nnc(-c3ccncc3)n2-c2ccccc2Cl)c(Br)c1 [compound 46] ?
Response: < 4.00

Query: Likewise for Cc1ccc(NC(=O)CSc2nnc(COc3ccc(C#N)cc3)n2-c2ccccc2)c(Br)c1 [compound 44] ?
Response: 4.00 to 5.00

Every entry's value here was drawn from patent US20080249131A1.
